MEASUREMENT_TARGET: Toll-like receptor 2 (Homo sapiens, UniProt O60603)
Sequence (O60603 whole entry): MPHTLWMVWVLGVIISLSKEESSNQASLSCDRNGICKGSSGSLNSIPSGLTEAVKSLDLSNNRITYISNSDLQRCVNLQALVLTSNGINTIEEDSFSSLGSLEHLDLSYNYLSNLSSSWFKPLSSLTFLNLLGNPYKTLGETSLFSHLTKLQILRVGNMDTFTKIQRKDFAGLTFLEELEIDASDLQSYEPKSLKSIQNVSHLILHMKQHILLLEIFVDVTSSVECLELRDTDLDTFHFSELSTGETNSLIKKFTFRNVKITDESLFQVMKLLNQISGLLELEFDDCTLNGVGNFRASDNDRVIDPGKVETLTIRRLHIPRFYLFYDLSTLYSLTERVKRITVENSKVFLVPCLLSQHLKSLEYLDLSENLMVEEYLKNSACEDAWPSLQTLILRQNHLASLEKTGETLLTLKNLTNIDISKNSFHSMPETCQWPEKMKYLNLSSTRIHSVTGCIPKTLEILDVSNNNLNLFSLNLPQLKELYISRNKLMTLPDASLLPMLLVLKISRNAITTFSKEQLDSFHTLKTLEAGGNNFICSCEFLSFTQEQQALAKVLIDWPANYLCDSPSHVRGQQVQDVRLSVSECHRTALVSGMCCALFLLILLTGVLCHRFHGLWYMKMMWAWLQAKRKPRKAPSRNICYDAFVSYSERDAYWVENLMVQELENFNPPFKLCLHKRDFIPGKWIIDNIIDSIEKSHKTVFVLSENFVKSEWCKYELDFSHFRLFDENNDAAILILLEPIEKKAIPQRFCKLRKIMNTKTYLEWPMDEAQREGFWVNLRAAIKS
ASSAY_INFO: Inhibition of TLR2 agonist Pam3Cys-Ser-(Lys)4-OH-mediated IL8 secretion in THP1 cells
MEASURE: IC50

{"columns": ["INPUT_SMILES", "MEASUREMENT_TARGET", "MEASURED"],
 "data": [
  ["CCCCCCCCCCCCCCCC(=O)O", "Toll-like receptor 2 (Homo sapiens, UniProt O60603)", "5 µM"]
]}

====

MEASUREMENT_TARGET: UniProtKB O60603
ASSAY_INFO: Inhibition of TLR2 agonist Pam3Cys-Ser-(Lys)4-OH-mediated IL8 secretion in THP1 cells
Assay type: functional, cell-based
EXPERIMENTAL_CONDITIONS: THP-1
Activity calls are given as the source filed them. The rule behind the calls is not given here.
MEASURE: Activity

{"columns": ["COMPOUND", "MEASUREMENT_TARGET", "MEASURED"],
 "data": [
  ["CCCCCCCCCCCCCC(=O)N[C@@H](CSC[C@@H](NC(=O)CCCCCCCCCCCCC)C(=O)O)C(=O)N[C@@H](CO)C(=O)N[C@@H](CCCCN)C(=O)N[C@@H](CCCCN)C(=O)N[C@@H](CCCCN)C(=O)N[C@@H](CCCCN)C(N)=O", "UniProtKB O60603", "inactive"],
  ["CCCCCCCCCCCCCC(=O)N[C@@H](CSC[C@@H](NC(=O)CCCCCCCCCCCCC)C(=O)N[C@@H](CO)C(=O)N[C@@H](CCCCN)C(=O)N[C@@H](CCCCN)C(=O)N[C@@H](CCCCN)C(=O)N[C@@H](CCCCN)C(N)=O)C(=O)O", "UniProtKB O60603", "inactive"],
  ["CCCCCCCCCCCCCCCC(=O)O [PALMITIC ACID]", "UniProtKB O60603", "68%"],
  ["CCCCCCCCCCCCCC(=O)N[C@H](CSC[C@@H](NC(=O)CCCCCCCCCCCCC)C(=O)N[C@@H](CO)C(=O)N[C@@H](CCCCN)C(=O)N[C@@H](CCCCN)C(=O)N[C@@H](CCCCN)C(=O)N[C@@H](CCCCN)C(N)=O)C(=O)O", "UniProtKB O60603", "inactive"],
  ["CCCCCCCCCCCCCC(=O)N[C@@H](CSC[C@H](NC(=O)CCCCCCCCCCCCC)C(=O)N[C@@H](CO)C(=O)N[C@@H](CCCCN)C(=O)N[C@@H](CCCCN)C(=O)N[C@@H](CCCCN)C(=O)N[C@@H](CCCCN)C(N)=O)C(=O)O", "UniProtKB O60603", "inactive"]
]}
